The reported numbers originate from ChEMBL document CHEMBL5724914.

# experimental_parameters: human gut metagenome, 24 h, 2 µM; note: call rule not given here
property_label: Bacterial Biotransformation

compound	Bacterial Biotransformation
Br.COc1ccc2c(c1)[C@]13CCCC[C@@H]1[C@H](C2)N(C)CC3.O [DEXTROMETHORPHAN HYDROBROMIDE]	Compound metabolized
Nc1nnc(-c2cccc(Cl)c2Cl)c(N)n1 [LAMOTRIGINE]	Compound NOT metabolized
O=C(O)c1cc(/N=N/c2ccc(S(=O)(=O)Nc3ccccn3)cc2)ccc1O [SULFASALAZINE]	Compound metabolized
CN1CCC(=C2c3ccccc3CC(=O)c3sccc32)CC1.O=C(O)/C=C/C(=O)O [KETOTIFEN FUMARATE]	Compound metabolized
N=C(N)NC(=O)Cc1c(Cl)cccc1Cl [GUANFACINE]	Compound NOT metabolized
CC(=O)OCC(CCn1cnc2cnc(N)nc21)COC(C)=O [FAMCICLOVIR]	Compound metabolized

Fill blank: measured Bacterial Biotransformation of the compound CCN(CC)CCNC(=O)c1cc(S(C)(=O)=O)ccc1OC [TIAPRIDE] is ____. Compound NOT metabolized

Given the compound O=C1N=C([O-])NC1(c1ccccc1)c1ccccc1.[Na+] [PHENYTOIN SODIUM] , what is its reported Bacterial Biotransformation? Compound metabolized

Consider the compound shown here: Nc1nc(NC2CC2)c2ncn([C@H]3C=C[C@@H](CO)C3)c2n1.Nc1nc(NC2CC2)c2ncn([C@H]3C=C[C@@H](CO)C3)c2n1.O=S(=O)(O)O [ABACAVIR SULFATE] What is its recorded Bacterial Biotransformation? Compound metabolized

* * *

# test_method_notes: The drug is tested on Z-013 corresponding to rabbit gut metagenome with ENA study accession number: PRJEB37062 and ENA sample accession number: ERS12561813 for biotransformation under anaerobic condition. The drug concentrations were measured over 9 timepoints collected between 0 and 24 hours of incubation by liquid-chromatography-coupled mass spectrometry (LC–MS)
# experimental_parameters: 2 µM
property_label: Bacterial Biotransformation

compound	Bacterial Biotransformation
Clc1cccc(Cl)c1N=C1NCCN1	Compound NOT metabolized
COC(=O)[C@H](c1ccccc1Cl)N1CCc2sccc2C1.O=S(=O)(O)O [CLOPIDOGREL BISULFATE]	Compound metabolized
CC(=O)SCC(Cc1ccccc1)C(=O)NCC(=O)OCc1ccccc1 (configuration not stated)	Compound metabolized
CSc1ccc2c(c1)C(N1CCN(C)CC1)Cc1ccccc1S2.O=C(O)/C=C\C(=O)O (configuration not stated)	Compound metabolized
CN1CCCCC1CCN1c2ccccc2Sc2ccc([S+](C)[O-])cc21.O=S(=O)(O)c1ccccc1 (configuration not stated) [MESORIDAZINE BESYLATE]	Compound NOT metabolized

May I ask what Bacterial Biotransformation has been recorded for CC(C)(C)NCC(O)c1cc(Cl)c(N)c(Cl)c1 (configuration not stated) ? Compound NOT metabolized

Tell me the measured Bacterial Biotransformation of CCCC(C)(COC(N)=O)COC(=O)NC(C)C (configuration not stated) , please. Compound NOT metabolized

I would be grateful if you could share the reported Bacterial Biotransformation for CC(NC(C)(C)C)C(=O)c1cccc(Cl)c1 (configuration not stated) . Compound metabolized

Look at this compound and give its reported Bacterial Biotransformation. O=C(NC(Cc1cc(=O)[nH]c2ccccc12)C(=O)O)c1ccc(Cl)cc1 (configuration not stated) [REBAMIPIDE] Compound NOT metabolized

So what's the measured Bacterial Biotransformation for this one? CN(C)C(=O)Oc1cccc([N+](C)(C)C)c1.[Br-] [NEOSTIGMINE BROMIDE] Compound NOT metabolized

What measured Bacterial Biotransformation goes with O=C(CCCN1CCC2(CC1)C(=O)NCN2c1ccccc1)c1ccc(F)cc1 ? Compound NOT metabolized

Need Bacterial Biotransformation of O=C(O)c1cc(/N=N/c2ccc(S(=O)(=O)Nc3ccccn3)cc2)ccc1O , thanks. Compound metabolized

Would you mind telling me what Bacterial Biotransformation value was observed for CN1C[C@H](C(=O)N[C@]2(C)O[C@@]3(O)[C@@H]4CCCN4C(=O)[C@H](Cc4ccccc4)N3C2=O)C[C@@H]2c3cccc4[nH]cc(c34)C[C@H]21.CS(=O)(=O)O [DIHYDROERGOTAMINE MESYLATE] ? Compound NOT metabolized

Item under review: Nc1nc(NC2CC2)c2ncn([C@H]3C=C[C@@H](CO)C3)c2n1.Nc1nc(NC2CC2)c2ncn([C@H]3C=C[C@@H](CO)C3)c2n1.O=S(=O)(O)O [ABACAVIR SULFATE] . Reported Bacterial Biotransformation? Compound NOT metabolized

* * *

# test_method_notes: The drug is tested on Z-018 corresponding to pig gut metagenome with ENA study accession number: PRJEB37062 and ENA sample accession number: ERS12561817 for biotransformation under anaerobic condition. The drug concentrations were measured over 9 timepoints collected between 0 and 24 hours of incubation by liquid-chromatography-coupled mass spectrometry (LC–MS)
# experimental_parameters: 2 µM
property_label: Bacterial Biotransformation

In [3]: df
Out[3]:
                                   compound               assay_value
0   CC12CC3CC(C)(C1)CC(N)(C3)C2 [MEMANTINE]  Compound NOT metabolized
1  COC(=O)C(c1ccccc1)C1CCCCN1 (centres undefined) [METHYLPHENIDATE]      Compound metabolized
2  CC[C@H](C)C(=O)O[C@H]1CCC=C2C=C[C@H](C)[C@H](CC[C@@H]3C[C@@H](O)CC(=O)O3)[C@H]21 [MEVASTATIN]      Compound metabolized
3  COc1ccc(CN2CCNCC2)c(OC)c1OC.Cl.Cl [TRIMETAZIDINE DIHYDROCHLORIDE]  Compound NOT metabolized

We next turn to a different compound, shown below.
Can you share its Bacterial Biotransformation? I mean this compound: CN(C/C=C/C#CC(C)(C)C)Cc1cccc2ccccc12 [TERBINAFINE] Compound NOT metabolized

* * *

# experimental_parameters: human gut metagenome, 24 h, 2 µM
property_label: Bacterial Biotransformation

Example entries begin here.
>>> df
                                   compound               assay_value
0  CC(=O)O[C@]1(C(C)=O)CC[C@H]2[C@@H]3C=C(C)C4=CC(=O)CC[C@]4(C)[C@H]3CC[C@@]21C [MEGESTROL ACETATE]      Compound metabolized
1  CN(C)C(=O)Oc1cc(OC(=O)N(C)C)cc(C(O)CNC(C)(C)C)c1 (configuration not stated) [BAMBUTEROL]      Compound metabolized
2  COc1ccc(CN2CCNCC2)c(OC)c1OC.Cl.Cl [TRIMETAZIDINE DIHYDROCHLORIDE]  Compound NOT metabolized
3  C[C@]12CCC(=O)C=C1[C@@H]1C[C@@H]1[C@H]1[C@@H]3[C@@H]4C[C@@H]4[C@@]4(CCC(=O)O4)[C@@]3(C)CC[C@@H]12 [DROSPIRENONE]  Compound NOT metabolized

Query: Bacterial Biotransformation; subject: CC(C)(C)N.CCC[C@H](N[C@@H](C)C(=O)N1[C@H](C(=O)O)C[C@@H]2CCCC[C@@H]21)C(=O)OCC [PERINDOPRIL ERBUMINE] Compound metabolized

Tell me the measured Bacterial Biotransformation of CC1=C(CC(=O)O)c2cc(F)ccc2/C1=C\c1ccc([S+](C)[O-])cc1 (configuration not stated) , please. Compound metabolized

# lookup: Bacterial Biotransformation of C#C[C@]1(OC(C)=O)CC[C@H]2[C@@H]3CCC4=C/C(=N/O)CC[C@@H]4[C@H]3CC[C@@]21CC [NORGESTIMATE] Compound metabolized

* * *

# experimental_parameters: human gut metagenome, 24 h, 2 µM
property_label: Bacterial Biotransformation

Previously resolved entries follow.
In [3]: df
Out[3]:
                                   compound               assay_value
0  CCc1cccc2c3c([nH]c12)C(CC)(CC(=O)O)OCC3 (configuration not stated)      Compound metabolized
1  C#C[C@]1(OC(C)=O)CC[C@H]2[C@@H]3CCC4=C[C@@H](OC(C)=O)CC[C@@H]4[C@H]3CC[C@@]21C [ETHYNODIOL DIACETATE]      Compound metabolized
2    CC(=O)Nc1ccc(OC(C)=O)cc1 [DIACETAMATE]      Compound metabolized
3  CCOc1ccccc1OCCN[C@H](C)Cc1ccc(OC)c(S(N)(=O)=O)c1.Cl [TAMSULOSIN HYDROCHLORIDE]      Compound metabolized
4  CC(=O)O[C@]1(C(C)=O)CC[C@H]2[C@@H]3C=C(C)C4=CC(=O)CC[C@]4(C)[C@H]3CC[C@@]21C [MEGESTROL ACETATE]      Compound metabolized
5                c1ccc2[nH]c(-c3cscn3)nc2c1  Compound NOT metabolized
6  CN1CCN2c3ccccc3Cc3ccccc3C2C1 (configuration not stated)  Compound NOT metabolized
7  C[C@]12C=CC(=O)C=C1CC[C@@H]1[C@@H]2C(=O)C[C@@]2(C)[C@H]1CC[C@]2(O)C(=O)CO      Compound metabolized

What value of Bacterial Biotransformation has been recorded for this entry: COc1ccc2c(c1)c(CC(=O)O)c(C)n2C(=O)c1ccc(Cl)cc1 Compound metabolized
